measurement target: Voltage-gated inwardly rectifying potassium channel KCNH2 (Homo sapiens, UniProt Q12809)
Sequence (Q12809 whole entry): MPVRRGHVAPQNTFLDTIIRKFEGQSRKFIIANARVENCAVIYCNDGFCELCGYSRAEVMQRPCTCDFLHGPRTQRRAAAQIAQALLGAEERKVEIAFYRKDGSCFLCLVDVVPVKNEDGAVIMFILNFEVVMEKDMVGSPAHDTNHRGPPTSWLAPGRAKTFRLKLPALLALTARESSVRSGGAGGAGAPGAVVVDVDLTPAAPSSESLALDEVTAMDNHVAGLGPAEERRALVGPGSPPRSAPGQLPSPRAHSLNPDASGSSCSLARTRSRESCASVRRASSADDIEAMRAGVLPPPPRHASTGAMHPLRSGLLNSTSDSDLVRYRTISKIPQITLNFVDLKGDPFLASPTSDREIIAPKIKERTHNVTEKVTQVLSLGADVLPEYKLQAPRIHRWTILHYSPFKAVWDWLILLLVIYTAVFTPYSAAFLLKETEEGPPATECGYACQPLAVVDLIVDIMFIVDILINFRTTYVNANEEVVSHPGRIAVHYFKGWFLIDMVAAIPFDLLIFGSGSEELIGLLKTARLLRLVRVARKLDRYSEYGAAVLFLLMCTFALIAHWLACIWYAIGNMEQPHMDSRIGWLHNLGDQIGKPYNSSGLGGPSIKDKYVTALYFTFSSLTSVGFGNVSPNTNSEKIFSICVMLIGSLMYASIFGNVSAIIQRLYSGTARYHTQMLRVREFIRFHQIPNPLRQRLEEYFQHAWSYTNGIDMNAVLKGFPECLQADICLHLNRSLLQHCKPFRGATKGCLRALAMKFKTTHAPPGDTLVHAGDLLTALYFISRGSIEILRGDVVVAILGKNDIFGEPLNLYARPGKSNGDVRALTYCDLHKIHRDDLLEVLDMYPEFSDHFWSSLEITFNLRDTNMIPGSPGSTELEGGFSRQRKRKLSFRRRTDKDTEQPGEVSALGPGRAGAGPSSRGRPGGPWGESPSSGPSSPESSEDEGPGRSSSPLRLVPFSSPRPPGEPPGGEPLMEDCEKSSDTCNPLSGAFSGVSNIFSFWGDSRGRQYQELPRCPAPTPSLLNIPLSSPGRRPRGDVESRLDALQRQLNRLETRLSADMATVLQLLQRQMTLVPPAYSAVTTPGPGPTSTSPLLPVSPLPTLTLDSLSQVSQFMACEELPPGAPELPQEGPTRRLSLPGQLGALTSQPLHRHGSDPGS
observed property: IC50 (µM)

[
  {
    "compound": "c1ccc(C(Cc2cccc3c2OCC3)N2CCNCC2)cc1 (stereo unspecified)",
    "measurement target": "Voltage-gated inwardly rectifying potassium channel KCNH2 (Homo sapiens, UniProt Q12809)",
    "observed property": "IC50",
    "units label": "µM",
    "assay result": 21.4
  }
]

----------
measurement target: Sodium-dependent dopamine transporter (Homo sapiens, UniProt Q01959)
Sequence (Q01959 whole entry): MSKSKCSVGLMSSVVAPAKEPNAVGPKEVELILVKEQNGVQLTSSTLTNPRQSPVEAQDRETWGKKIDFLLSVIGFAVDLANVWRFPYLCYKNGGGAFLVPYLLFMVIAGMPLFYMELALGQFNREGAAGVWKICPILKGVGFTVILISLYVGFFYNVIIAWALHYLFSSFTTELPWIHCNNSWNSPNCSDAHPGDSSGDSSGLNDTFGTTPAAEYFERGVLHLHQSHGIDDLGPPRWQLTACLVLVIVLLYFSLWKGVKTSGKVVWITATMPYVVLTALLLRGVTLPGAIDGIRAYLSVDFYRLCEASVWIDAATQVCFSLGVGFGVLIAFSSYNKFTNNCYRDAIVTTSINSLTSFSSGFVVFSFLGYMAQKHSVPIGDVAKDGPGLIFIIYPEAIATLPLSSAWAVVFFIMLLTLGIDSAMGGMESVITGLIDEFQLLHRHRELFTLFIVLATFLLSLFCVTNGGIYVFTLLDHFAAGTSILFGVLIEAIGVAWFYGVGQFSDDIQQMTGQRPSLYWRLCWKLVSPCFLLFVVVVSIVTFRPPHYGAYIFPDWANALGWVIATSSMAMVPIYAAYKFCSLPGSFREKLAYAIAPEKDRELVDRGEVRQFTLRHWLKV
pKi: −log10 of the molar value.
observed property: pKi

[
  {
    "molecule": "c1ccc(C(Cc2cccc3c2OCC3)N2CCNCC2)cc1 (stereo unspecified)",
    "measurement target": "Sodium-dependent dopamine transporter (Homo sapiens, UniProt Q01959)",
    "assay result": "< 5.50"
  }
]

----------
measurement target: Sodium-dependent serotonin transporter (Homo sapiens, UniProt P31645)
Sequence (P31645 whole entry): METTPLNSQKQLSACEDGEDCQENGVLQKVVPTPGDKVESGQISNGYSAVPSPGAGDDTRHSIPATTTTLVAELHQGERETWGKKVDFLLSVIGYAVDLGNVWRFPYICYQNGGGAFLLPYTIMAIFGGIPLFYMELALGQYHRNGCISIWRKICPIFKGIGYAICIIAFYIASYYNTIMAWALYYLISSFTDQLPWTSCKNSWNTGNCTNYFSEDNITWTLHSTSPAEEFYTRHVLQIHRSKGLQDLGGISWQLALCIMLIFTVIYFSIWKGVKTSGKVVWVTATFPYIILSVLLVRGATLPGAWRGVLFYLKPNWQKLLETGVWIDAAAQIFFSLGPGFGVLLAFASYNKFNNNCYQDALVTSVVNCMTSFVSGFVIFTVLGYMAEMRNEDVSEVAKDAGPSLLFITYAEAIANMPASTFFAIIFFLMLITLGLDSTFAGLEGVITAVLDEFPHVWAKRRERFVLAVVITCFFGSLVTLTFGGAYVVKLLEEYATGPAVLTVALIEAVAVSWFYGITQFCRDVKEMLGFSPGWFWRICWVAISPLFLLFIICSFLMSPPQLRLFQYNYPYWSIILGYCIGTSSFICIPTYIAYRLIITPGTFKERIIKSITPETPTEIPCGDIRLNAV
pKi: −log10 of the molar value.

[
  {
    "molecule": "c1ccc(C(Cc2cccc3c2OCC3)N2CCNCC2)cc1 (stereo unspecified)",
    "measurement target": "Sodium-dependent serotonin transporter (Homo sapiens, UniProt P31645)",
    "pKi": 8.10
  }
]
